# Tested on: C. glabrata
# Test name: Broth dilution antifungal susceptibility testing, C. glabrata
# Format: cell-based, Candida glabrata
# Study conditions: Nakaseomyces glabratus, 48 h, isolate 07-2965; 48 hours; 50% reduction in turbidity; read-out: minimum inhibitory concentration (MIC)
Endpoint name: MIC

>  <Structure string>
CN(C)c1ccc(NC(=O)CCCCCNC(=O)c2ccccc2S)cc1

>  <MIC>
> 64 µg/mL

$$$$
>  <Structure string>
O=C(NCCCCCCNC(=O)c1ccccc1S)c1ccccc1S

>  <MIC>
> 64 µg/mL

$$$$
>  <Structure string>
COc1ccc(S)c(C(=O)NCCCCCC(=O)Nc2ccccc2)c1

>  <MIC>
> 64 µg/mL

$$$$
>  <Structure string>
O=C(CCCCCNC(=O)c1cc(Cl)ccc1S)Nc1ccccc1

>  <MIC>
> 64 µg/mL

$$$$
>  <Structure string>
Nc1ccc(NC(=O)CCCCCNC(=O)c2ccccc2S)cc1

>  <MIC>
32 µg/mL

$$$$
>  <Structure string>
O=C(CCCCCNC(=O)c1ccccc1S)Nc1cccnc1

>  <MIC>
64 µg/mL

$$$$

Problem: Quick check: MIC of O=C(CCCCCNC(=O)c1ccccc1S)Nc1ccccc1 ?
Solution: > 64 µg/mL

---

# Tested on: K562 Leukemia chronic myelo
# Test name: CellTiter-Glo proliferation assay, K562
# Assay type: cell-based
# Study conditions: Homo sapiens, 72 hr incubation, read-out: IC50 (50% inhibition of proliferation)
Endpoint name: IC50 (µM)
Give the value in µM but do not write µM after it.

Problem: May I ask what IC50 has been recorded for O=C(CCCCCNC(=O)c1ccccc1S)Nc1cccnc1 ?
Solution: 58.3

---

# System: C. albicans
# Test name: Broth dilution antifungal susceptibility testing, C. albicans
# Format: cell-based, Candida albicans
# Study conditions: Candida albicans, 24 h, isolate 07-3006; 24 hours; 50% reduction in turbidity; read-out: minimum inhibitory concentration (MIC)
Endpoint name: MIC

>  <Structure string>
O=C(NCCCCCCNC(=O)c1ccccc1S)c1ccccc1S

>  <MIC>
> 64 µg/mL

$$$$

Problem: Record request: MIC value, item COc1ccc(S)c(C(=O)NCCCCCC(=O)Nc2ccccc2)c1
Solution: > 64 µg/mL

Problem: For O=C(CCCCCNC(=O)c1cc(Cl)ccc1S)Nc1ccccc1 , what is its reported MIC?
Solution: > 64 µg/mL

---

# System: C. glabrata
# Test name: Broth dilution antifungal susceptibility testing, C. glabrata
# Format: cell-based, Candida glabrata
# Study conditions: Nakaseomyces glabratus, 24 h, isolate 07-2964; 24 hours; 50% reduction in turbidity; read-out: minimum inhibitory concentration (MIC)
# Protocol: A total of 23 isolates were tested to include 3 Candida albicans, 3 Candida glabrata, 3 Cryptococcus neoformans, 3 Aspergillus fumigatus, 3 Rhizopus oryzae, 3, Fusarium solani, 3 Pseudallescheria boydii, and 2 […]. All isolates were clinical isolates submitted to the Fungus Testing Laboratory for evaluation. […] Minimum inhibitory concentrations (MIC) were determined at the first 24-hour interval where growth could be determined in the drug-free control tube.
Endpoint name: MIC

>  <Structure string>
O=C(NCCCCCCNC(=O)c1ccccc1S)c1ccccc1S

>  <Measured target>
C. glabrata

>  <Endpoint name>
MIC

>  <Value measured>
> 64 µg/mL

$$$$
>  <Structure string>
COc1ccc(S)c(C(=O)NCCCCCC(=O)Nc2ccccc2)c1

>  <Measured target>
C. glabrata

>  <Endpoint name>
MIC

>  <Value measured>
> 64 µg/mL

$$$$

Problem: Entry O=C(CCCCCNC(=O)c1cc(Cl)ccc1S)Nc1ccccc1 : reported MIC = ?
Solution: > 64 µg/mL

Every entry's value here was drawn from patent US8455688B2.
